- testedTarget: T1, AFP158/HLA-A*02:01 complex (human)
- T1 construct: flowed over the chip in SPR; also called AFP158 pro
- method: SPR, KD ratio to AS170036 VL1VH1;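 also: crude scFv captured on a sensor chip, peptide–HLA complex passed over at several concentrations, association then buffer dissociation, KD derived from on- and off-rates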
The reader will find reported Affinity increase values listed item by item below.
// return numeric value only (unit: fold, not printed)

// worked examples, Affinity increase included
{"binder": "HG56E (scFv, AS170036 VL1VH1 scFv mutein) scFv: QSALTQPRSVSGSPGQSVTISCAGTSSDVGSENYVSWYQQHPGKAPKLMIYQVNKRASGVPDRFSGSKSGNTASLTISGLQAEDEADYYCASYRSSDHNIVFGGGTKLTVLGGGGSGGGGSGGGGSEVQLVESGGGLVQPGGSLRLSCAASGFTFSSYAMSWVRQAPGKGLEWVSTINSGTESPYYADSVKGRFTISRDNSKNTLYLQMNSLRAEDTAVYYCAKNFFDGSWFLGPPAMDYWGQGTLVTVSSHHHHHH", "Affinity increase (fold)": 1}
{"binder": "HG108M (scFv, AS170036 VL1VH1 scFv mutein; also called AS170036 VL1VH1-VHG108M) scFv: QSALTQPRSVSGSPGQSVTISCAGTSSDVGSENYVSWYQQHPGKAPKLMIYQVNKRASGVPDRFSGSKSGNTASLTISGLQAEDEADYYCASYRSSDHNIVFGGGTKLTVLGGGGSGGGGSGGGGSEVQLVESGGGLVQPGGSLRLSCAASGFTFSSYAMSWVRQAPGKGLEWVSTINSGTGSPYYADSVKGRFTISRDNSKNTLYLQMNSLRAEDTAVYYCAKNFFDGSWFLMPPAMDYWGQGTLVTVSSHHHHHH", "Affinity increase (fold)": 4.7}
{"binder": "HG56W (scFv, AS170036 VL1VH1 scFv mutein) scFv: QSALTQPRSVSGSPGQSVTISCAGTSSDVGSENYVSWYQQHPGKAPKLMIYQVNKRASGVPDRFSGSKSGNTASLTISGLQAEDEADYYCASYRSSDHNIVFGGGTKLTVLGGGGSGGGGSGGGGSEVQLVESGGGLVQPGGSLRLSCAASGFTFSSYAMSWVRQAPGKGLEWVSTINSGTWSPYYADSVKGRFTISRDNSKNTLYLQMNSLRAEDTAVYYCAKNFFDGSWFLGPPAMDYWGQGTLVTVSSHHHHHH", "Affinity increase (fold)": 1.7}

// below: Affinity increase requested for another binder
Report Affinity increase for HS57Q (scFv, AS170036 VL1VH1 scFv mutein; also called AS170036 VL1VH1-VHS57Q) scFv: QSALTQPRSVSGSPGQSVTISCAGTSSDVGSENYVSWYQQHPGKAPKLMIYQVNKRASGVPDRFSGSKSGNTASLTISGLQAEDEADYYCASYRSSDHNIVFGGGTKLTVLGGGGSGGGGSGGGGSEVQLVESGGGLVQPGGSLRLSCAASGFTFSSYAMSWVRQAPGKGLEWVSTINSGTGQPYYADSVKGRFTISRDNSKNTLYLQMNSLRAEDTAVYYCAKNFFDGSWFLGPPAMDYWGQGTLVTVSSHHHHHH please. 2.4
